target: Aspartate--tRNA(Asp/Asn) ligase (Mycobacterium tuberculosis (strain ATCC 25618 / H37Rv)) (UniProt P9WFW3); assay: Assay for Asp RNA synthetase-1 from Mycobacterium tuberculosis; assay type: functional; parameters: scale not given: direction of the effect not stated beside the values; settings: 30 µM; further: in the data most compounds retested in dose-response had high values
Sequence (P9WFW3 whole entry): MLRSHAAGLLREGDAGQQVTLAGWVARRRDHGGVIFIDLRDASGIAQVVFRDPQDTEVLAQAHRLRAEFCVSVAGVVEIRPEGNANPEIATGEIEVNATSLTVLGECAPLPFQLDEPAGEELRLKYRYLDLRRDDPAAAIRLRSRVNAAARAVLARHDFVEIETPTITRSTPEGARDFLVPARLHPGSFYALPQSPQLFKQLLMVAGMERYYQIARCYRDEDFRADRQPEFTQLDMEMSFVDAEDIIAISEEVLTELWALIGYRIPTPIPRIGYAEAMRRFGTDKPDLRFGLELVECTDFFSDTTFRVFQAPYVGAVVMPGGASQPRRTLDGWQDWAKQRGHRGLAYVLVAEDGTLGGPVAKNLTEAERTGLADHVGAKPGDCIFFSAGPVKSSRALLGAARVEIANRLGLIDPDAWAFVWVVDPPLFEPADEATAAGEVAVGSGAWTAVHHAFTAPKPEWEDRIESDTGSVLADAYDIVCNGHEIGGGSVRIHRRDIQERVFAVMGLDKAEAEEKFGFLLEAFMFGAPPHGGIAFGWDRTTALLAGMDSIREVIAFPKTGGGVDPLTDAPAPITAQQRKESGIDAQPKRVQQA
Listed here are compounds together with their documented Percent Effect.
endpoint label: Percent Effect (%)

| compound | reported value |
| --- | --- |
| N#Cc1ccc(F)c(CN2CCCC2Cn2cnc3ccccc32)c1 (stereo unspecified) | -0.466 |
| CCN(CC)C(=O)c1nnn(-c2ccc(C)cc2)c1C1CC1 | -1.37 |
| Cc1cc(C)n(CC2CCCN2C(=O)c2ccc3c(c2)nnn3C)n1 (stereo unspecified) | 5.23 |
| CN(C)C(=O)N1CCN(C(=O)C(c2ccccc2F)N(C)C)CC1 (stereo unspecified) | 0.752 |
| CC(C)(C)C(=O)N1CCCC1c1nc(O)cc(-c2ccccn2)n1 (stereo unspecified) | -4.27 |
| O=C(CN1CCCCC1Cn1cncn1)NC1CCN(C2CC2)CC1 (stereo unspecified) | -0.234 |
| Cc1cc(C)n(C2CN(CC(=O)N(C)Cc3ccc(C)o3)C2)n1 | -0.898 |
| Cc1ccc(CS(=O)(=O)N2CC[C@H]3[C@H]2CCN3C)cc1 | -3.51 |
| COc1ccc(CN(C)C(=O)CCC(=O)c2cccs2)c(OC)c1OC | 1 |
| O=C(Cc1cccs1)N1C[C@@H]2OCCN(CC3CCCO3)[C@@H]2C1 (stereo partly specified) | -5.27 |
| COC(=O)c1ccoc1COC(=O)CCc1ccc(OC)c(OC)c1 | -3.44 |

====

Listed here are compounds together with their documented Percent Effect.
target: Aspartate--tRNA(Asp/Asn) ligase (Mycobacterium tuberculosis (strain ATCC 25618 / H37Rv)) (UniProt P9WFW3); experiment: Assay for Asp RNA synthetase-1 from Mycobacterium tuberculosis; assay type: functional; parameters: scale not given: direction of the effect not stated beside the values; settings: 30 µM; further: in the data most compounds retested in dose-response had high values
endpoint label: Percent Effect (%)

| compound | readout units | reported value |
| --- | --- | --- |
| CCNC(=O)N1CCN(C(=O)c2cc(Cl)cc3cccnc23)CC1 | % | -3.21 |
| O=C([C@H]1C[C@@H]2CCN(C3CCOCC3)C[C@@H]2O1)N1CCOCC1 | % | 1.17 |
| Cc1ccc(NC2CCN(C(=O)Cc3ccc(C#N)cc3)CC2)nn1 | % | 4.2 |
| Cc1nc(CN(C)C2CCN(Cc3ccno3)C2)no1 (configuration not stated) | % | -4.76 |
| COc1ccc(Oc2cncc(C3CCCN3C(C)=O)n2)cc1 (configuration not stated) | % | 0.194 |
| CCCNC(=O)CNc1ccc(C(=O)N2CCCCC2C)cc1C (configuration not stated) | % | 3.79 |
| CN1CCN(Cc2cscn2)CC(C(=O)N(C)C)C1 (configuration not stated) | % | -6.57 |
| c1csc(-c2nc(CN3CCOC(Cn4cncn4)C3)co2)c1 (configuration not stated) | % | 21.8 |
| Cc1nc(NCCc2ccc(Cl)cc2)cc(C(=O)N2CCOCC2)n1 | % | 12.1 |
| O=C(Nc1ccccc1)C1CN(CC2CC2)CC12CCOCC2 (configuration not stated) | % | 0.903 |
| O=C(N[C@H]1CN[C@H]2CCCO[C@H]21)c1ccno1 | % | 0.661 |
| Cn1nc(CNC(=O)C2CC2)cc1C1CC1 | % | -2.99 |
| O=C(c1ccc2[nH]ccc2c1)N1CCn2cnc(COCC3CC3)c2C1 | % | 7.07 |
| O=C(NCc1cc[nH]n1)NCC(c1ccco1)N1CCCC1 (configuration not stated) | % | 0.607 |
| CN1CCN(C(=O)c2nc3c(o2)CN(C(=O)c2cccnc2)C3)CC1 | % | 2.23 |
| Cc1ccc(NC(=O)N2C[C@H]3CC[C@@H]2CN(Cc2cscn2)C3)cc1 | % | -2.57 |
| Cc1cccc(C(=O)N(C)Cc2cc(Br)cs2)n1 | % | -0.0599 |
| CCc1nc(C)c([C@H]2CN(C)C[C@@H]2C(=O)Nc2ccc(OC)cc2)[nH]1 | % | -1.19 |
| Cc1cc(C)n(-c2ccc(CNCc3ccc(OC(C)C)cc3)cn2)n1 | % | -4.39 |
| CCc1nc(CN2CCN(C(=O)Cc3c(C)noc3C)CC2)cs1 | % | -3.43 |
| CC(=O)N1CCNCC1c1cccc(C(=O)N(C)C)c1 (configuration not stated) | % | -4.15 |
| Cc1cc2c(=O)n3c(nc2s1)CCN(Cc1cnn(C)c1C)CC3 | % | -4.72 |
| CCN1CCC(NC(=O)CN2CCCC2Cn2cncn2)CC1 (configuration not stated) | % | -1.82 |
| O=C(NCC1CCOC1)c1csc(-c2cccc(Cl)c2)n1 (configuration not stated) | % | 0.759 |
| COc1ccc(C(=O)NCCCn2ccnc2)c(OC)n1 | % | -1.77 |
| COc1ccc(C2=CCN(C(=O)C3CC(=O)N(C4CC4)C3)CC2)cc1 (configuration not stated) | % | 1.54 |
| Cn1cc(-c2cnc(N3CCCC3)nc2)cc1C(=O)O | % | -9.05 |
| Cc1ccccc1CSc1nc(N)cc(N2CC[C@@H](O)C2)n1 | % | 0.861 |
| COc1cc(S(=O)(=O)N2CCc3ccc(F)cc32)cc(C(=O)O)c1OC | % | 1.4 |
| CC(C)c1nccn1CCCNC(=O)c1ccc(-c2cncnc2)nc1 | % | -1.78 |
| COCC(=O)N1CCCC2(CCN(c3ccsc3)C2=O)C1 (configuration not stated) | % | -1.49 |
| O=C(NCC1CC1)[C@H]1CC[C@@H]2[C@@H](CCN2Cc2ccoc2)O1 | % | -5.12 |
| O=C(c1cccnc1)N1CCCC2(CCN(c3ccsc3)C2=O)C1 (configuration not stated) | % | 7.21 |
| COCCNC(=O)c1sc(Nc2ccc(Cl)cn2)nc1C | % | -1.92 |
| CNC(=O)CN(C)c1nc(-c2ccncc2)nc2c1CCN(C(C)=O)C2 | % | -1.03 |
| Cc1cnn(CC2CCCN2Cc2nccn2C)c1 (configuration not stated) | % | 5.22 |
| O=C(NC[C@]12COC[C@H]1CN(Cc1ccncc1)C2)c1ccco1 | % | -0.368 |
| CCOCC(O)CN1CCN(C(=O)C2CC2)CC1 (configuration not stated) | % | 1.82 |
| CC(=O)c1cn(CCC(=O)N[C@H](C(=O)O)C(C)C)c2ccccc12 | % | -1.95 |
| O=C(O)c1csc(S(=O)(=O)N2CCCc3ccc(F)cc32)c1 | % | 1.9 |
| CC(C)c1n[nH]c(C2CN(C(=O)c3csnn3)CCO2)n1 (configuration not stated) | % | -5.03 |
| CCN1CCN(c2ccc(CNC(=O)c3c(C)noc3C)cn2)CC1 | % | -3.84 |
| CCc1[nH]ncc1C(=O)N1CCCC(n2nc(C)nc2C)C1 (configuration not stated) | % | -1.03 |
| CS(=O)(=O)N1CCc2nc(NC(=O)Nc3c(F)cccc3F)sc2C1 | % | -4.11 |
| COCCN1CCC2(CCCN(C(=O)c3cnoc3C)C2)C1=O (configuration not stated) | % | 0.137 |
| Cc1n[nH]c(C2CN(CC(=O)NCCc3ccsc3)CCO2)n1 (configuration not stated) | % | -3.33 |
| Cn1cc(CN2CCCN(C(=O)c3cn4ccccc4n3)CC2)cn1 | % | 1.48 |

====

biological target: Shiga toxin 2 (Escherichia coli O157:H7) (UniProt P09385+P09386); experiment: E. coli 0.157:H7 Shiga Toxin SOP - stx2 screening assay; assay type: functional; parameters: scale not given: direction of the effect not stated beside the values; conditions: 30 µM

| compound | Percent Effect, % |
| --- | --- |
| N#Cc1ccccc1N1CCCN(C(=O)CCc2nccs2)CC1 | 9.06 |
| Cc1cc(CN(C)C(=O)NCC(C)N2CCc3ccccc32)no1 (stereo unspecified) | -6.14 |
| Cc1ccc(OCC(O)CN2CCC(Cn3cccn3)CC2)cc1 (stereo unspecified) | -51.7 |
| Cc1[nH]c(=O)[nH]c(=O)c1CN1CCCC(CCc2c(F)cccc2F)C1 (stereo unspecified) | 0.432 |
| Cc1ccc(-c2cc(N)c(=O)n(CC(=O)NCC3CCCCC3)n2)s1 | 2.09 |
| Fc1ccc(CN2CCO[C@H]3[C@H](OCC4CC4)CC[C@@H]32)cc1 | 3.83 |
| CN(C)Cc1ccc(C2CCCCN2C(=O)c2cc(C3CC3)n[nH]2)cc1 (stereo unspecified) | 2.95 |
| COc1ccc(CN2C[C@H](OCC3CCOCC3)[C@H]3COC[C@H]32)cc1 | 1.49 |
| Cc1csc(C2CCCN(C(=O)c3cc(Cl)c[nH]3)C2)n1 (stereo unspecified) | 29.7 |
| Cc1nc2ccnn2c(C)c1CCC(=O)N1CCC(C(N)=O)CC1 | 13.3 |
| CN1CCCC1CNC(=O)CCCOc1ccc(F)cc1 (stereo unspecified) | 1.57 |
